All values here come from patent EP1247803A2.

- System: MET
- ASSAY NOTES: MET biochemical kinase assay
- Set-up: species or system human; concentration or dose not given beside the values
RECORDED METRIC: Met Kinase % Inhibition (%)
Please reply with the bare figure in % and do not write the unit itself.

O=C1Nc2ccc(I)cc2C1=Cc1cc2ccccc2nc1Cl [10730/B08] has a reported Met Kinase % Inhibition of 91.8

Met Kinase % Inhibition reading for CCn1c2ccccc2c2cc(C=C3C(=O)Nc4ccc(I)cc43)ccc21 [10731/B02] : 71.6

The recorded Met Kinase % Inhibition for CCOC(=O)c1cc(C=C2C(=O)Nc3ccc(I)cc32)oc1C [10718/B06] is 78.4

For this compound ( CNS(=O)(=O)c1ccc2c(c1)C(=Cc1cc3ccccc3nc1Cl)C(=O)N2 [10730/D08] ), measured Met Kinase % Inhibition is -13.6

Reported Met Kinase % Inhibition for Cc1cc(O)cc(O)c1C=C1C(=O)Nc2ccc(S(=O)(=O)Nc3ccc(C(F)(F)F)cc3)cc21 [10720/E08] was 55.1

# Met Kinase % Inhibition of O=C1Nc2ccc(I)cc2C1=Cc1ccc(O)c(O)c1O [10723/B02] = 100.3

Looking up CC(C)c1cc(C=C2C(=O)Nc3c(Br)cc(Br)cc32)cc(C(C)C)c1O [10724/A06] , I found its Met Kinase % Inhibition recorded as 46.8

The measured Met Kinase % Inhibition associated with Cc1cc(C=C2C(=O)Nc3ccc(Br)c(C)c32)sc1C [10721/C04] reads 88.7

Sample O=C1Nc2ccc(I)cc2C1=Cc1ccc2ccccc2c1O [10718/B04] ; Met Kinase % Inhibition observed: 63.9

====

- Test system: MET
- ASSAY NOTES: MET biochemical kinase assay
- Set-up: species or system human; concentration or dose not given beside the values
RECORDED METRIC: Met Kinase % Inhibition (%)
Form entry: value (%) — number only.

Entry "CC(C)c1cc(C=C2C(=O)Nc3ccc(S(=O)(=O)N4CCOCC4)cc32)cc(C(C)C)c1Oc1ccccc1" , Met Kinase % Inhibition reported as 57.2

Lab book: Met Kinase % Inhibition of "CNS(=O)(=O)c1ccc2c(c1)C(=Cc1cccn1C)C(=O)N2" noted as 21.0

Measured Met Kinase % Inhibition of "CNS(=O)(=O)c1ccc2c(c1)C(=Cc1nc3ccccc3n1C)C(=O)N2" : 22.5

Documented Met Kinase % Inhibition of "O=C1Nc2c(Br)cc(Br)cc2C1=Cc1cc([N+](=O)[O-])cc(CCl)c1O" : 81.3

GET /value?item= "O=C1Nc2ccc(S(=O)(=O)Nc3ccc(C(F)(F)F)cc3)cc2C1=Cc1ccccc1Br" &field=Met Kinase % Inhibition returns 47.7

The reported value for "CCOC(=O)c1[nH]c(C=C2C(=O)Nc3ccc(I)cc32)c(C(=O)OC)c1C" in terms of Met Kinase % Inhibition is 81.1

Per the records, this compound ( "O=C1Nc2ccc(CCCl)cc2C1=Cc1cc2c(cc1Cl)OCO2" ) has Met Kinase % Inhibition equal to 31.1

For "CCc1cc(CC)c(C=C2C(=O)Nc3ccc(CCCl)cc32)[nH]1" the compound record lists Met Kinase % Inhibition as 40.5

The measured Met Kinase % Inhibition associated with "Cc1cc(O)cc(O)c1C=C1C(=O)Nc2c(Br)cc(Br)cc21" reads 77.9
